- Test system: purified LFA (sialic acid specific slug lectin)
- PROTOCOL_TEXT: Inhibition of hemagglutination by purified LFA
- Format: cell-based, Limax flavus
- MEASUREMENT_SETUP: carbohydrate 25.0 mM; 0.34 μg purified LFA per assay
Inhibition (%) Purified LFA listing for selected molecules.
Expressed in %, but write only the number.

Here is how some molecules turned out for Inhibition (%) Purified LFA.
OC[C@H]1OC(O)[C@H](O)[C@@H](O)[C@@H]1O (single isomer, unassigned) [D (-) Glucose]: 0
O=C(O)[C@H]1OC(O)[C@H](O)[C@@H](O)[C@@H]1O (single isomer, unassigned) [D (-) Glucuronic Acid]: 0
OC[C@H]1OC(O)[C@H](O)[C@@H](O)[C@H]1O (single isomer, unassigned) [D (+) Galactose]: 0

Please turn your attention to the following entry.
Prompt: Value lookup for Inhibition (%) Purified LFA; key = CO[C@H]1O[C@H](CO)[C@@H](O)[C@H](O)[C@@H]1O [α-Methyl-D-Mannose]
Completion: 0
